Entry source: patent US11040027B2

Target: JNK1 (Homo sapiens, UniProt P45983)
Sequence (P45983 1-384 isoform P45983-2): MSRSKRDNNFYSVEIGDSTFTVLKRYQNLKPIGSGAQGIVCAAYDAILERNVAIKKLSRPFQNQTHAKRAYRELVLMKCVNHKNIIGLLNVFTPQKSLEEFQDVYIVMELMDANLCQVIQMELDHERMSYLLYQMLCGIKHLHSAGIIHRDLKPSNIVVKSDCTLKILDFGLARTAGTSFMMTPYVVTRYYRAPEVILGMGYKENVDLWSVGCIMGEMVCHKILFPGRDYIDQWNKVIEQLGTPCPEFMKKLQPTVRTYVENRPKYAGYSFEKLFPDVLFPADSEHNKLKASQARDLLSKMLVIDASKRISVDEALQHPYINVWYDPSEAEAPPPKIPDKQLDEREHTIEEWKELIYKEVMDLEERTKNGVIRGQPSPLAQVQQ
Test: KINOMEscan competition binding assay, selectivity JNK1 versus MKK4
Conditions: Test conc 0.1 μM; ratio of percent of control; N/E* = PoC for JNK1 = 100
property: Selectivity JNK1/MKK4

Please review the entries below; each comes with its answer.
CCCCS(=O)(=O)Nc1cccc(C(=O)c2c[nH]c3ncc(-c4cc5c(cc4Cl)OCCO5)cc23)c1F 24
CS(=O)(=O)Nc1cccc(C(=O)c2c[nH]c3ncc(-c4cc5c(cc4Cl)OCCO5)cc23)c1F 8.4

[P] CCCS(=O)(=O)Nc1ccc(F)c(C(=O)c2c[nH]c3ncc(-c4ccc(OCC)cc4Cl)cc23)c1F
[Q] CCCCS(=O)(=O)Nc1cccc(C(=O)c2c[nH]c3ncc(-c4ccc5c(c4)OCCO5)cc23)c1F
[R] CCCS(=O)(=O)Nc1ccc(F)c(C(=O)c2c[nH]c3ncc(-c4ccc(O)cc4Cl)cc23)c1F
Ask: Order the records by Selectivity JNK1/MKK4, with each subsequent value no larger than the one before. Write the labels, ordered according to the request.
Reply: Q, R, P
(Q: 55, R: 25, P: 8.6)

* * *

Target: MKK7 (Homo sapiens, UniProt O14733)
Sequence (O14733 1-419): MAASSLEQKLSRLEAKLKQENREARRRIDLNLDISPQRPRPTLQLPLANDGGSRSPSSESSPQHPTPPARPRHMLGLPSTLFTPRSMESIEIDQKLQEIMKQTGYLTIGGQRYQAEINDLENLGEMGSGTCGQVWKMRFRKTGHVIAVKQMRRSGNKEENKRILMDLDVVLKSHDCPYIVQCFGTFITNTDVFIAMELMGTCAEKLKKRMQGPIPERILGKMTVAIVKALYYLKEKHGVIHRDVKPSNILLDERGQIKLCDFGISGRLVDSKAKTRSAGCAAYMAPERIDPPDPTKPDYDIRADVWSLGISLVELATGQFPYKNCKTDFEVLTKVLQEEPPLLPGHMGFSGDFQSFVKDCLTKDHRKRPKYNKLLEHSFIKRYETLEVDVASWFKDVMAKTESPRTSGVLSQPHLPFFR
Assay: KINOMEscan competition binding assay, selectivity MKK7 versus MKK4
Details: Test conc. 0.1 μM; ratio of percent of control; N/E* per footnote
property: Selectivity MKK7/MKK4

[I] CCCS(=O)(=O)Nc1ccc(F)c(C(=O)c2c[nH]c3ncc(-c4ccc(C#N)cc4)cc23)c1F
[II] CCCS(=O)(=O)Nc1ccc(F)c(C(=O)c2c[nH]c3ncc(-c4ccc(F)cc4Cl)cc23)c1F
[III] CCCS(=O)(=O)Nc1ccc(F)c(C(=O)c2c[nH]c3ncc(-c4ccc(Cl)cc4Cl)cc23)c1F
Ask: Please rank the 3 items above; order by Selectivity MKK7/MKK4, the highest number leading. Ranked list of labels, please, in the requested order.
Reply: I, II, III

[I] CCCS(=O)(=O)Nc1ccc(F)c(C(=O)c2c[nH]c3ncc(-c4ccc(SC)cc4)cc23)c1F
[II] CCCS(=O)(=O)Nc1ccc(F)c(C(=O)c2c[nH]c3ncc(-c4ccc(C(C)C)cc4)cc23)c1F
Ask: Lab notebook, comparison: I versus II , higher Selectivity MKK7/MKK4 goes to which? The response must carry the label of the picked entry.
Reply: I

* * *

Target: JNK1 (Homo sapiens)
Test: KINOMEscan competition binding assay, selectivity JNK1 versus MKK4
Details: Test conc 10 μM; ratio of percent of control
Quick reference for Selectivity JNK1/MKK4 among some molecules

# example entries with known answers
CCCS(=O)(=O)Nc1ccc(F)c(C(=O)c2c[nH]c3ncc(-c4cccc5ccccc45)cc23)c1F 40
CCCS(=O)(=O)Nc1ccc(F)c(C(=O)c2c[nH]c3ncc(-c4ccc(C(C)C)cc4)cc23)c1F >100
CCCS(=O)(=O)Nc1ccc(F)c(C(=O)c2c[nH]c3ncc(-c4ccccc4Cl)cc23)c1F >100

Now look at this one.
Lab note: molecule CCCS(=O)(=O)Nc1ccc(F)c(C(=O)c2c[nH]c3ncc(-c4ccc(F)cc4C)cc23)c1F tested on JNK1 (Homo sapiens); recorded Selectivity JNK1/MKK4 was >100
